assay: inhibition of 3D7 malaria parasite growth – strain 3D7 (AID 2306);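 note: 0% = DMSO wells and 100% = chloroquine plus artemisinin control wells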; conditions: P. falciparum 3D7 erythrocytic growth, LDH absorbance, 72 h; at 2 µM; stronger effect = higher value
Entries and their growth inhibition

{"Compound": "O=C(Nc1ccc(OC2CCN(CC3CC3)CC2)c(Cl)c1)c1ccc2ncccc2c1", "growth inhibition [%]": 84}
{"Compound": "Cc1[nH]c(C)c(-c2ccc(Oc3ccc(OC(F)(F)F)cc3)cc2)c(=O)c1I", "growth inhibition [%]": 95}
{"Compound": "CCCC(=O)Nc1ccc(OCCCCN(CC(C)(C)C)c2ccc(C#N)c(C(F)(F)F)c2)cc1", "growth inhibition [%]": 83}
{"Compound": "CC(=O)Nc1ccc(S(=O)(=O)NC2=NC(C)(C)N(OCc3ccc(Cl)c(Cl)c3)C(N)=N2)cc1", "growth inhibition [%]": 93}
{"Compound": "CN(C)CCN1CCN(Cc2ccc(-c3cccc(-c4nc5ccccc5[nH]4)c3)cc2)CC1", "growth inhibition [%]": 102}
{"Compound": "CCCC1N=C(N)N=C(N)N1c1ccc(CC)cc1 (stereo not given)", "growth inhibition [%]": 94}
{"Compound": "C=CCNC(=O)C(C)c1ccc2cc(OC)ccc2c1 (stereo not given)", "growth inhibition [%]": 92}
{"Compound": "O=S(=O)(c1c(Cl)cc(Cl)cc1Cl)N1CCCCC(c2ccc(F)c(F)c2)=N1", "growth inhibition [%]": 87}
{"Compound": "CCc1ccc(NC(=O)c2ccc(CN3CCCN(Cc4cccc(O)c4)CC3)cc2)cc1", "growth inhibition [%]": 100}
{"Compound": "COc1ccc(CC2(c3ccc(F)cc3)N=C(N)N(CCCc3ccccc3)C2=O)cc1 (stereo not given)", "growth inhibition [%]": 99}

====

test: inhibitors of polyQ protein aggregation (AID 1604); details: polyglutamine-induced protein aggregation inhibition assay; stronger effect = higher value; tested at 2.5 µM

{"Molecule": "CC[C@H](C)C(=O)O[C@H]1CCC=C2C=C[C@H](C)C(CCC3C[C@@H](O)CC(=O)O3)[C@H]21 (some centres not stated)", "Unit Text": "%", "inhibition of aggregation": 31.8}
{"Molecule": "CC(=O)OCC(=O)[C@@]1(O)[C@H](C)CC2C3CCC4=CC(=O)C=C[C@]4(C)[C@@]3(F)[C@@H](O)C[C@@]21C (some centres not stated)", "Unit Text": "%", "inhibition of aggregation": 69.4}
{"Molecule": "CCCC1O[C@@H]2CC3C4CCC5=CC(=O)C=CC5(C)C4[C@@H](O)CC3(C)[C@]2(C(=O)CO)O1 (some centres not stated)", "Unit Text": "%", "inhibition of aggregation": 69.2}
{"Molecule": "CN(C)CC/C=C1/c2ccccc2COc2ccccc21", "Unit Text": "%", "inhibition of aggregation": 92.3}
{"Molecule": "C[C@@H]1CC2C3CCC4=CC(=O)C=C[C@]4(C)[C@@]3(F)[C@@H](O)C[C@]2(C)[C@@]1(O)C(=O)CO (some centres not stated)", "Unit Text": "%", "inhibition of aggregation": 31.7}
{"Molecule": "C=CC[C@@H]1/C=C(\\C)C[C@H](C)C[C@H](OC)[C@H]2O[C@@](O)(C(=O)C(=O)N3CCCC[C@H]3C(=O)O[C@H](/C(C)=C/[C@@H]3CC[C@@H](O)[C@H](OC)C3)[C@H](C)[C@@H](O)CC1=O)[C@H](C)C[C@@H]2OC", "Unit Text": "%", "inhibition of aggregation": 0}
{"Molecule": "C1CCN2C[C@H]3C[C@H](CN4CCCC[C@@H]34)[C@H]2C1", "Unit Text": "%", "inhibition of aggregation": 26.9}

The measurements presented in this section are drawn from PubChem BioAssay.
